Items are presented alongside their recorded protein stability index.
B1: SMTNL2 (parent)
chain: AFTMAENLANCERLIEVEDMMVMG

variants of: B1; assay: protein stability index of a GFP-peptide fusion (GPS, HEK-293T) (PSI 1-6); higher = more stable; conditions: c terminus: a fixed tail appended;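 further: lentivirally expressed fusions sorted by FACS into six bins by GFP to DsRed ratio, PSI derived from sequencing read proportions per bin multiplied by bin number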

sequence-entry | protein stability index
AFTMAENLANCERLIEVEDVMVMG [M20V] | 2.68
AFTMAENLANCETLIEVEDMMVMG [R13T] | 2.99
WFTMAENLANCERLIEVEDMMVMG [A1W] | 1.86
AFTMAENLANCERKIEVEDMMVMG [L14K] | 3.89
AFTMAENLANCERLLEVEDMMVMG [I15L] | 2.82
AFTMAENLAKCERLIEVEDMMVMG [N10K] | 2.48
AFTMAENLANCERLIEVEDMMVMT [G24T] | 1.68
AFTMAENLANCERLIEVEDMMVMF [G24F] | 2.22
AFTMAENLHNCERLIEVEDMMVMG [A9H] | 2.34
AFTMAENLANCERLIEVEDMHVMG [M21H] | 3.02
AFTMAENLANCERLAEVEDMMVMG [I15A] | 4
